Just for reference, patent US4069035A is where these values come from.

# pKa per entry
# TEST_DESCRIPTION: pKa by titration against aqueous NaOH (half neutralization point), buffer range
# Type: physicochemical
# CONDITION_NOTES: dimethylsulfoxide/water, 0.09995N NaOH, half neutralization point
EXPERIMENTAL_ENDPOINT: pKa

smiles_representation=Cc1ccc(-c2ncn(-c3ccccc3C(=O)O)n2)cc1 data_value=4.81
smiles_representation=O=C(O)c1ccccc1-n1cnc(-c2ccc(Cl)c(Cl)c2)n1 data_value=6.19
smiles_representation=O=C(O)c1ccccc1-n1cnc(-c2ccccc2)n1 data_value=5.91
smiles_representation=O=C(O)c1ccccc1-n1cnc(-c2ccc(Cl)cc2)n1 data_value=5.48
smiles_representation=O=C(O)c1ccccc1-n1cnc(-c2ccccc2)c1 data_value=4.91
smiles_representation=COc1ccc(-c2cn(-c3ccccc3C(=O)O)cn2)cc1 data_value=5.08
smiles_representation=COc1ccc(-c2ncn(-c3ccccc3C(=O)O)n2)cc1 data_value=4.73
smiles_representation=Cc1ccc(-c2cn(-c3ccccc3C(=O)O)cn2)cc1 data_value=5.59

----------
# Test system: cassia
# TEST_DESCRIPTION: preemergence plant growth test
# Format: in vivo
# CONDITION_NOTES: 2k/ha
EXPERIMENTAL_ENDPOINT: epinastic response

smiles_representation=O=C(O)c1ccccc1-n1cnc(-c2ccc(Cl)c(Cl)c2)n1 data_value="epinastic responses"
smiles_representation=COc1ccc(-c2ncn(-c3ccccc3C(=O)O)n2)cc1 data_value="epinastic responses"
smiles_representation=O=C(O)c1ccccc1-n1cnc(-c2ccc(Cl)cc2)n1 data_value="epinastic responses"
